EXPERIMENTAL PROTOCOL: CellTiter-Glo luminescent readout of SW480 viability loss, NPC library primary (AID 1117343)
CONDITION DESCRIPTION: CellTiter-Glo luminescence; at 20 µM (top of the series)
The source made the active and inactive calls.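 The calls were made as follows: active = compounds that lower viability of the colon cancer cells in the luminescence readout, with no numeric limit stated; inactive = the rest.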
Possible outcomes: T for active, F for inactive

| MOLECULE | CATEGORY |
| --- | --- |
| NC(=O)CC[C@@H]1NC(=O)[C@H](Cc2ccccc2)NC(=O)[C@H](Cc2ccc(O)cc2)NC(=O)CCSSC[C@@H](C(=O)N2CCC[C@H]2C(=O)N[C@@H](CCCN=C(N)N)C(=O)NCC(N)=O)NC(=O)[C@H](CC(N)=O)NC1=O | F |
| COc1ccccc1OCC(O)COC(N)=O (stereo not drawn) | F |
| CC(=O)Nc1ccc(/C=N/NC(N)=S)cc1 | F |
| C/C(=N/NC(=O)c1ccncc1)C(=O)O | F |
| CCOC(=O)C(=O)CCCCCCl | F |
| CC(C)[C@H]1CC[C@H](C)C[C@H]1O | F |
| C[C@@H]1O[C@@H](OC[C@H]2O[C@@H](Oc3c(-c4ccc(O)c(O)c4)oc4cc(O)cc(O)c4c3=O)[C@H](O)[C@@H](O)[C@@H]2O)[C@H](O)[C@H](O)[C@H]1O | T |
| CCCC(=O)O[C@]1(C(=O)COC(=O)CC)CC[C@H]2[C@@H]3CCC4=CC(=O)CC[C@]4(C)[C@H]3[C@@H](O)C[C@@]21C | F |

----------
TEST TARGET: Cellular tumor antigen p53 (Homo sapiens)
EXPERIMENTAL PROTOCOL: kinase inhibitors altering GFP-p53 stability in HPV16-positive cells, imaging, known kinase inhibitor set, EGFP/DsRed ratio (AID 1053116);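 also: cells exposed to compounds for 24 h at 37 °C before reading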
CONDITION DESCRIPTION: hits give high values

| MOLECULE | TEST TARGET | EGFP/DsRed ratio |
| --- | --- | --- |
| COc1cc2ncn(-c3cc(OCc4cccs4)c(C(N)=O)s3)c2cc1OC | Cellular tumor antigen p53 (Homo sapiens) | 0.163 |
| O/N=C1/CCc2cc(-c3nc(C4CCNCC4)[nH]c3-c3ccncc3)ccc21 | Cellular tumor antigen p53 (Homo sapiens) | 0.00487 |
| CCCN1CCCC(c2ccc(Nc3nc(Nc4cc(F)ccc4C(N)=O)c4cc[nH]c4n3)c(OC)c2)C1 (stereo not given) | Cellular tumor antigen p53 (Homo sapiens) | 0.576 |
| COc1ccc2c(c1)C(c1ccccc1Cl)=Nc1c(n[nH]c1C)N2 | Cellular tumor antigen p53 (Homo sapiens) | 0.0722 |
| NC(=O)c1sc(-n2cnc3ccc(C(F)(F)F)cc32)cc1OCc1ccccc1Br | Cellular tumor antigen p53 (Homo sapiens) | 0.119 |
| Cn1c(=O)c(Oc2ccc(F)cc2F)cc2cnc(NC3CCC(O)CC3)nc21 (stereo not given) | Cellular tumor antigen p53 (Homo sapiens) | 0.154 |
| O=C(NCC1CC1)c1ccc(-c2cccc(C(=O)NC3CC3)c2)cc1 | Cellular tumor antigen p53 (Homo sapiens) | 0.0862 |
| CON=C1NC(=O)C(=Cc2ccc3ncccc3c2)S1 | Cellular tumor antigen p53 (Homo sapiens) | 0.0939 |
| NC(=O)c1ccc(-c2nc(-c3ccc4c(c3)OCO4)c(-c3ccccn3)[nH]2)cc1 | Cellular tumor antigen p53 (Homo sapiens) | 0.161 |
| Cn1cc(C2=C(c3cn(C)c4ccccc34)C(=O)NC2=O)c2ccccc21 | Cellular tumor antigen p53 (Homo sapiens) | 0.17 |
